Reported apparent KD of MS2 coat protein values are given for each entry in this list.
Tested on: MS2 coat protein
Method notes: apparent KD of MS2 coat protein; designed switch direction (-1 OFF switch, 1 ON switch): -1; higher = weaker reporter binding
Assay conditions: input ligand: none
Don't forget the unit after the value.

# Sequence content, apparent KD of MS2 coat protein
data = [
    ("UCUCGCAGGCAAGGAUAUCCUACAUUGUUCUGGCCCGGGCAUGUUACAUGAGGAUCACCCAUGUGGGAGAAGGUGCGCCACGGC [Design 33] (Eterna round: R96, puzzle: Exclusion NG 2)", "100 nM"),
    ("UCCUCCUAAGGAUAUGCGUCGGUUGAACUAUGCUAAAAGGGACAUGAGGAUCACCCAUGUAGAAGGUAGGGCAG [Eternabot (L2) Solution 86] (Eterna round: R97, puzzle: Exclusion 2)", "48.8 nM"),
    ("CUGCUGGAGCUUUGCUUUGGUCGUACAUGAGGAUCACCCAUGUAGGAUAUGGUAGGAUUUGCUUGCUAGAAGGAUAGAGUGGUC [salish99_ExNG3_r04_610] (Eterna round: R96, puzzle: Exclusion NG 3)", "54.5 nM"),
    ("UGAAUACGUGUUAGGAUAUGGUUUGGUAUUUCGGGCUAGAAGGGACAUGAGGAUCACCCAUGUAAUUGAUAGGU [-16.2, -13.6 kcal, 27% A] (Eterna round: R97, puzzle: Brourd's mod of Exclusion 4)", "38.5 nM"),
]

# ---- query sequence ----
For GUCAUCACACAUGGGAUCAACAUGAGGAUCACCCAUGUUGCCAAGCCGUUUGCACGUCUUAUCAUACGUUUUUCGAU [Mod-Jxj] (Eterna round: R97, puzzle: Sensor, turn-off variant 1) the sequence record lists apparent KD of MS2 coat protein as 99.8 nM

----------
Test system: MS2 coat protein
Method notes: apparent KD of MS2 coat protein; designed switch direction (-1 OFF switch, 1 ON switch): 1; higher = weaker reporter binding
Assay conditions: input ligand: microRNA oligo, concentration not stated
Property name: apparent KD of MS2 coat protein (nM)
The response must be a number in nM with no trailing unit.

As a guide, the following entries are already answered.
# Sequence content, Reading unit, apparent KD of MS2 coat protein
rows = [
    ("GUGAAGAAUUAAGGAUAUCGAGUCAAGAUGUUAAACAUGAGGAUCACCCAUGUGGGUUGCGGUAUCGAGAAGGUAAAUUACAGG [salish99_SSNG2_r04_502] (Eterna round: R96, puzzle: Same State NG 2)", "nM", 21.1),
    ("AAUUAAUUAAUACAUGAGGAUCACCCAUGUAAUUAUUAGAUCUAGGAUAUCAGCUCGAAUAGAGCUGAGAAGGAGAUCACAUGU [SSNG3/18-B1] (Eterna round: R96, puzzle: Same State NG 3)", "nM", 14.5),
    ("AUGAAGAAUUAAGGAUAUUGAUUACAUAUGUUUAACAUGAGGAUCACCCAUGUGGGUUGCGGUAUCGAGAAGGUAAAUUAAAAG [Mat - same State NG 2 - JL mod - D88] (Eterna round: R96, puzzle: Same State NG 2)", "nM", 156),
    ("UGAAUAUCUACAGGAUAUGAGUUGUAUAGUGGAUCAGAAGGGUGGGUGUUUUGCACGGUGUGUUACAUGAGGAUCACCCAUGUU [SameState NG1 #25] (Eterna round: R96, puzzle: Same State NG 1)", "nM", 139),
    ("GGACGUCAACUCACUAAUUAACAUGAGGAUCACCCAUGUUCACAGGAUAUGAGUCCGAUUAGGACUCAGAAGGGUGAGACGUCC [Fiskers NG3ss - 48] (Eterna round: R96, puzzle: Same State NG 3)", "nM", 19.7),
    ("ACAUGAGACCUAGGAUAUAUUGUACCUACAUGUGACAUGAGGAUCACCCAUGUGGUAAGUAUGACAUAGAAGGAGGAGAUAUGU [Equivalance 93 - Jieux - Same State NG 2] (Eterna round: R96, puzzle: Same State NG 2)", "nM", 27.2),
    ("ACUCUACAUGAGGAUCACCCAUGUUGAGCCCAUCAAGGAUAUGGGUCUUAAUCGCGGGUGCCAGAAGGUGAUGGUU [Xesove] (Eterna round: R96, puzzle: Same State 1)", "nM", 46.8),
    ("ACUUAGUACAAUUUAGAUCUACAUGAGGAUCACCCAUGUACUGAGGAUAUCAGCUCGAAUAGAGCUGAGAAGGCAGUAGUACUA [SSNG3/9-A1] (Eterna round: R96, puzzle: Same State NG 3)", "nM", 42.6),
]

For this sequence ( AGAUCAUGACGAGGAUAUGGUACAUGAGGAUCACCCAUGUAUGUAUCAUAACGCGAAUGACGAAACCAGAAGGCGUCGUGAUCA [Mat - Same State NG 2 - JL mod - D43] (Eterna round: R96, puzzle: Same State NG 2) ), measured apparent KD of MS2 coat protein is 11.9
